This collection of values is drawn from patent US20260167731A1.

system_under_test: T1, pwt1, unmodified CCR8 related peptide (human, none (non-sulfated Y15, Y16, Y17))
T1 construct: First 34 amino acids of human CCR8, synthetic; also called unmodified peptide
protocol_text: ELISA on coated CCR8 peptide (500 ng/mL), OD [cont.]

[
  {
    "binder": "anti-CCR8 mAb 2-7 (antibody, V domains shown) VH: QVQLKESGPGLVAPSQSLSITCTVSGFSLTDYRVSWIRQPPGKGLEWLGVIWGGRSTYYNSALKSRLSISKDNSKSQVFLKMNSLQTDDTAMYYCAKQGDGYYALDYWGQGTSVTVSS VL: DVVMTQTPLSLPVSLGDQASISCRSSQSLVHSYGNTYLHWYLQKPGQSPKLLIYKVSNRFSGVPDRFHGSGSGTDFTLKISRVEAEDLGVYFCSQSTHVPPTFGGGTKLEIK",
    "binding result": "binds"
  },
  {
    "binder": "humanized anti-CCR8 mAb 2-15 (antibody, human IgG1, kappa, V domains shown, Humanized, human IgG1 / kappa) VH: QVQLQQSGPEVVKPGASVKVSCKTSGYTFTEYTIHWVRQSHGQSLEWVGGINPNNGNTRYDQKFKGRVTITIDKSSSTAYMELRSLTSEDTAVYYCARVARSSGSGPYAMDYWGQGTTVTVSS VL: DVVMTQSPLSLPVTLGDQASISCRCSQSLLHTNGDTYLHWYLQRPGQSPRLLIYKVSNRFSGVPDRFSGSGSGTDFTLKISRVEAEDVGVYFCSQSTHVPYTFGGGTKVEIKR",
    "binding result": "binds"
  },
  {
    "binder": "anti-CCR8 mAb 2-2 (antibody, V domains shown) VH: QVQLKESGPGLVAPSQSLSITCTVSGLSMNDYVVTWIRQPPGKGLEWLGVIWGGGNTYYNSDLKSRLSITKDNSKSQVFFKMSSLQTDDTAVYYCARRHRDYALDYWGQGISVTVSS VL: DVVMTQTPLSLPVSLGDQASISCRSSQSLVYSNGNTYLHWYLQKPGQSPKLLIYKVSNRFSGVPDRFSGSGSGTDFTLKISRVEAEDLGVYFCSQSTYVPPTFGGGTKLEIK",
    "binding result": "binds"
  }
]
